experimentNotes: Solubility of the compound in fasted state simulated intestinal fluid after 0.5 hrs
Type: physicochemical
endpoint: solubility at 0.5 h (µg/mL)
The answer is to be given in µg/mL; state only the numeric part.

Requested read-out: solubility at 0.5 h. Entry: CC[C@@H](NC(=O)c1ccc2c(c1)ncn2Cc1ncc(F)cc1F)c1ccccc1 80

###

Consider the following compounds and their measured concentration readings.
Test system: Brain
experimentNotes: Drug uptake in rat brain at steady state at 2 mg/kg/h, iv
Type: ADME, organism-based
Design: route intravenous
setupConditions: in vivo, read-out: Drug uptake
The figure you give is taken to be in nM; do not add the unit.

Quick check: concentration of CC[C@@H](NC(=O)c1ccc2c(c1)ncn2Cc1ccc(F)cc1F)c1ccccc1 ? 455

What would you report for CC[C@@H](NC(=O)c1ccc2c(c1)ncn2Cc1ccc(Cl)c(Cl)c1)c1ccccc1 ? 655

Others:
State the recorded concentration for this entry: CC[C@@H](NC(=O)c1ccc2c(c1)ncn2Cc1ccccn1)c1ccccc1 228

CC[C@@H](NC(=O)c1ccc2c(c1)ncn2Cc1ncc(F)cc1F)c1ccccc1 , same question. 446

###

Tested on: P-gp (human MDR1)
experimentNotes: Efflux ratio of permeability in dog MDCK2 expressing human MDR1 cells by PGP assay
Format: ADME, cell-based, Canis lupus familiaris, MDCK-II
setupConditions: MDCK-MDR1
endpoint: efflux ratio
# print the numeric value only

# value lookup — system P-gp (human MDR1), readout efflux ratio, item CC[C@@H](NC(=O)c1ccc2c(c1)ncn2Cc1ncc(F)cc1F)c1ccccc1 1.6

###

experimentalTarget: Cytochrome P450 3A4 (Homo sapiens, UniProt P08684)
Sequence (P08684 whole entry): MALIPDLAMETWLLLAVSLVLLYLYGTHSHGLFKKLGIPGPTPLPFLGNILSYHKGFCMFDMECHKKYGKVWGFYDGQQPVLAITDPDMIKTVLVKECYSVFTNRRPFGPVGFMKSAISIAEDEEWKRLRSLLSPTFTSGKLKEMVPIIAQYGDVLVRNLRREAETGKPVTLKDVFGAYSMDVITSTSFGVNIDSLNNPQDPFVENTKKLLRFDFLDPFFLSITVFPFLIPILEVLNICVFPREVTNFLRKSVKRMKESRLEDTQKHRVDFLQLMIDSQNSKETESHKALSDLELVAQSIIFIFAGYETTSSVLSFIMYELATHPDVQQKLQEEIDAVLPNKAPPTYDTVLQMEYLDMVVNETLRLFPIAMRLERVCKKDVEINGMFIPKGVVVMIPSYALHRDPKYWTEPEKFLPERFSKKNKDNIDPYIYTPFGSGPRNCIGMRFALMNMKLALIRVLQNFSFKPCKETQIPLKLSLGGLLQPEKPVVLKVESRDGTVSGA
experimentNotes: Inhibition of CYP3A4 using DEF substrate
Assay type: ADME
endpoint: IC50 (µM)
Note: unit µM is implicit; provide only the numeric part.

Which value of IC50 has been reported for CC[C@@H](NC(=O)c1ccc2c(c1)ncn2Cc1ncc(F)cc1F)c1ccccc1 in the records? 45

###

experimentNotes: Fraction unbound in rat brain
Format: ADME, tissue-based
endpoint: fraction unbound
Answer as a number with no unit attached.

For the compound CC[C@@H](NC(=O)c1ccc2c(c1)ncn2Cc1ncc(F)cc1F)c1ccccc1 , what fraction unbound is on record? 0.115

###

experimentNotes: Ratio of drug uptake in brain to blood at steady state in rat at 2 mg/kg/h, iv
Assay type: ADME, organism-based
Set-up: route intravenous
Reported Kp by item:

Observe how each entry below is paired with its result.
Item under review: CC[C@@H](NC(=O)c1ccc2c(c1)ncn2Cc1ccc(F)cc1F)c1ccccc1 . Reported Kp? 0.59

Now consider CC[C@@H](NC(=O)c1ccc2c(c1)ncn2Cc1ccc(Cl)c(Cl)c1)c1ccccc1 . 0.71

And then CC[C@@H](NC(=O)c1ccc2c(c1)ncn2Cc1ncc(F)cc1F)c1ccccc1 , what is it? 0.22

--- query ---
Which value of Kp has been reported for CC[C@@H](NC(=O)c1ccc2c(c1)ncn2Cc1ccccn1)c1ccccc1 in the records? 0.2

###

experimentNotes: Ratio of drug uptake in brain to blood in rat at 3 mg/kg, po
Type: ADME, organism-based
Parameters: dose 3 mg/kg, route oral
endpoint: Kp

Form field: reported Kp of Cc1nc2cc(C(=O)N[C@H](C)c3ccccc3)ccc2n1Cc1ccc(Cl)c(Cl)c1 0.29

###

Test system: Mus musculus
experimentNotes: Blood clearance in mouse at 1 mg/kg, iv
Type: ADME, organism-based
Set-up: dose 1 mg/kg, route intravenous
setupConditions: in vivo
endpoint: clearance (mL/min/kg)
Record the value in mL/min/kg, omitting the unit from your answer.

Need clearance, item CCC(NC(=O)c1ccc2c(c1)nc(C)n2Cc1ccc(Cl)c(Cl)c1)c1ccccc1 (stereo unspecified) 736
